Values compiled from paper PMC12040169.

# ASSAY_OVERVIEW: in vitro
# RECORDED_CONDITIONS: human, hela cells, % viability
PARAMETER_MEASURED: viability at 28.5 h, 10 µM (%)
Numeric answer only, unit % assumed.

These recorded examples may help you get a feel for the data.
> print(dat)
                                   compound          parameter.measured  units.symbol  measured.number
1  O=C(CC1SC(Nc2ccc(O)cc2)=NC1=O)c1ccccc1 (centres unmarked) [CBK267009]  viability at 28.5 h, 10 µM             %             98.5
2  Cn1c(CNc2ccccc2C(=O)O)c(C#N)c2ccccc21 [CBK286977]  viability at 28.5 h, 10 µM             %             88.7
3  O=C(NCc1ccccc1OC1CCNC1)c1ccccn1 (centres unmarked) [CBK029464T]  viability at 28.5 h, 10 µM             %             91.6

Enquiry: Give me measured viability at 28.5 h, 10 µM, please, for this compound: Fc1cc(F)cc(-c2nnc(Cc3nc(-c4ccncc4)no3)o2)c1 [CBK288602]
Return: 98.6

Enquiry: Give me measured viability at 28.5 h, 10 µM, please, for this compound: CC[C@H]1CN(C(C)=O)CC[C@H]1CC(=O)NCc1ccc2c(c1)OCO2 [CBK289131]
Return: 89.2

---

# ASSAY_OVERVIEW: in vitro
# Set-up: Viability of infected HeLa host cells, resazurin conversion, bulk resorufin fluorescence relative to DMSO
# RECORDED_CONDITIONS: human, hela cells; bulk resorufin, mean of 3
molecules and their reported viability at 28.5 h, 10 µM
Numeric answer only, unit % assumed.

These recorded examples may help you get a feel for the data.
> print(dat)
                                   molecule  units.symbol  measured.number
1  Cc1cccc(-c2ccc(CC3(C(N)=O)CCN(C(=O)CCc4ccccc4)CC3)cc2)c1 [c38e]             %              104
2      CCOc1ccc2nc(NC(=N)N)nc(C)c2c1 [c37e]             %               79
3  O=C(Nc1ccccc1N1CCCNCC1)c1ccc2ccccc2c1 [c29e]             %              116
4  Cc1noc(-c2ccc3c(c2O)OCCO3)c1-c1ccc(Cl)cc1 [c20e]             %             85.9

Please examine the following record next.
Enquiry: Give me measured viability at 28.5 h, 10 µM, please, for this molecule: COc1ccc(C2CC(=O)C=C(Nc3cc(Cl)ccc3O)C2)cc1 (centres unmarked) [c24e]
Return: 83.7

---

# ASSAY_OVERVIEW: in vitro
# RECORDED_CONDITIONS: human, hela cells, % viability
compounds and their reported viability at 28.5 h, 10 µM
Field note: include the unit after the figure.

These recorded examples may help you get a feel for the data.
> print(dat)
                                   compound          parameter.measured  result
1  Cc1ccc(C(=O)NCC2COc3ccccc3O2)c(N2CCN(C(=O)c3ccco3)CC2)n1 (stereo not drawn)  viability at 28.5 h, 10 µM   93.9%
2  O=C(CN1CCCC1=O)NC1(C(F)(F)F)NC(=O)N(c2ccc(F)cc2)C1=O (stereo not drawn)  viability at 28.5 h, 10 µM   98.1%
3              CN(C)CCCC(=O)Nc1ccc2ncccc2c1  viability at 28.5 h, 10 µM   83.4%
4  OC(CN1CCN(C(c2ccccc2)c2ccccc2)CC1)Cn1c2ccccc2c2ccccc21 (stereo not drawn)  viability at 28.5 h, 10 µM   99.6%
5  COC(=O)C1=C(Cn2ccc(C(F)(F)F)n2)NC(=O)NC1c1cc(C)ccc1C (stereo not drawn)  viability at 28.5 h, 10 µM    105%

Enquiry: Give me measured viability at 28.5 h, 10 µM, please, for this compound: Cc1ccc(/C=C2\SC(=S)N(CC(=O)Nc3cccc(C(=O)O)c3)C2=O)cc1
Return: 86.2%

Enquiry: Give me measured viability at 28.5 h, 10 µM, please, for this compound: Cc1ccc(C(=O)N2CCC(c3nn(C)c4ncccc34)CC2)s1
Return: 86.1%

Enquiry: Give me measured viability at 28.5 h, 10 µM, please, for this compound: CN1CCN(c2nc(-c3ccc4c(c3)CCC(=O)N4)cs2)CC1 [CBK304319C]
Return: 80.6%

Enquiry: Give me measured viability at 28.5 h, 10 µM, please, for this compound: CCC(NC(=O)c1ccc(C#CC2(O)CCCCC2)cc1)C(=O)O (stereo not drawn)
Return: 96.8%
